molecular target: HEK293 cells expressing 17β-HSD13 (Homo sapiens (Human), UniProt Q7Z5P4); test: 17β-HSD13 cell-based assay (β-estradiol conversion, LC-MS/MS); settings: HEK293 cells stably expressing 17β-HSD13 (footnote b); read-out: EC50, nM Stable
Sequence (Q7Z5P4 20-300): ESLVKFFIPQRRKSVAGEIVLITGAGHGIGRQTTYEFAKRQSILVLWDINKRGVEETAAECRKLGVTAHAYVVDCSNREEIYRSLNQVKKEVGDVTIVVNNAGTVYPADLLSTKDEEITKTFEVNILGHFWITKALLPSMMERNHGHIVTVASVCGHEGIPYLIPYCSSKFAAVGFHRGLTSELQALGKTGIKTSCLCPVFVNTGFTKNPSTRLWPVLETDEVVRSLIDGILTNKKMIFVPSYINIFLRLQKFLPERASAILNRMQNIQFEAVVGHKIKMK
# label = Satisfied if EC50 < 10 nM else Not satisfied

Is 10 nM strictly greater than the molecule's reported EC50? molecule: O=C1N([C@@H](c2ccccc2)C(F)(F)F)C(=O)C2(CC2)N1Cc1nnc(-c2ccc(F)c(O)c2F)s1 [Compound I-99A] Satisfied

Is 10 nM strictly greater than the molecule's reported EC50? molecule: O=C1N(CC(F)(F)F)C(=O)C2(CC2)N1Cc1nnc(-c2cc(C(F)(F)F)cc(O)c2Cl)s1 Not satisfied

Is 10 nM strictly greater than the molecule's reported EC50? molecule: C[C@@H](c1ccccc1)N1C(=O)N(Cc2nnc(-c3ccc(F)c(O)c3Cl)s2)C2(CC2)C1=O Not satisfied
